SYSTEM NAME: human MetAP2 enzyme (Homo sapiens, UniProt P50579)
Sequence (P50579 whole entry): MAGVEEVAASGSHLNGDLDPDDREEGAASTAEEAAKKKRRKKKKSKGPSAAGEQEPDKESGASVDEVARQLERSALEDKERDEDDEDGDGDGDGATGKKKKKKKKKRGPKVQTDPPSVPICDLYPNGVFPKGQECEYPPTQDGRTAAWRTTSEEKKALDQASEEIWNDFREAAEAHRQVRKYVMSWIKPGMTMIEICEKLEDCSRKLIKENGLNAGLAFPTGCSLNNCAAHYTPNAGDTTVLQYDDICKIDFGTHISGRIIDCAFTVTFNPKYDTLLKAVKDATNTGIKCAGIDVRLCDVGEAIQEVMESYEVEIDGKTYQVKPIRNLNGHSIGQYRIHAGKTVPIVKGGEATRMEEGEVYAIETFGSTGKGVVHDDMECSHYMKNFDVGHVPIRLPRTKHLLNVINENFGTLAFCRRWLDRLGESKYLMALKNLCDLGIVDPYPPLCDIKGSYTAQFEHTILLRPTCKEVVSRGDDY
EXPERIMENT DESCRIPTION: MetAP2 enzyme assay, enzyme complexed with manganese ions
RUN CONDITIONS: MetAP2 Mn pIC50, MetAP2 enzyme complexed with manganese ions; Met-AMC substrate at Km
I'd appreciate it if you could supply log10 IC50 values for the items below.
Hi team, quick reminder: these entries are log10 of IC50 (nM).

Sample `NS(=O)(=O)c1cncc(-c2cc(C(F)(F)F)cc3[nH]ncc23)c1` , system: human MetAP2 enzyme (Homo sapiens, UniProt P50579). Its log10 IC50 is 0.70

Sample `O=C(NCCO)c1ccc(-c2cc(C(F)(F)F)cc3[nH]ncc23)cc1` , system: human MetAP2 enzyme (Homo sapiens, UniProt P50579). Its log10 IC50 is 0.20

Sample `Cn1cc(C(=O)NC2CC2)cc(-c2cc(C(F)(F)F)cc3[nH]ncc23)c1=O` , system: human MetAP2 enzyme (Homo sapiens, UniProt P50579). Its log10 IC50 is 0.90

Sample `Cc1ncccc1-c1cc(C(F)(F)F)cc2[nH]ncc12` , system: human MetAP2 enzyme (Homo sapiens, UniProt P50579). Its log10 IC50 is 0.70

Sample `Cc1cc(=O)n(CC#N)cc1-c1cc(C(F)(F)F)cc2[nH]ncc12` , system: human MetAP2 enzyme (Homo sapiens, UniProt P50579). Its log10 IC50 is 0.60

Sample `FC(F)(F)c1cc(-c2cnc3[nH]ccc3c2)c2cn[nH]c2c1` , system: human MetAP2 enzyme (Homo sapiens, UniProt P50579). Its log10 IC50 is 1.10

Sample `CN(C)C(=O)c1ccc(-c2cc(C(F)(F)F)cc3[nH]ncc23)cc1` , system: human MetAP2 enzyme (Homo sapiens, UniProt P50579). Its log10 IC50 is 0.90

Sample `CN(C)CCOc1ccc(-c2cc(C(F)(F)F)cc3[nH]ncc23)cc1` , system: human MetAP2 enzyme (Homo sapiens, UniProt P50579). Its log10 IC50 is 0.80

Sample `FC(F)(F)c1cc(-c2cnc3c(c2)OCCN3)c2cn[nH]c2c1` , system: human MetAP2 enzyme (Homo sapiens, UniProt P50579). Its log10 IC50 is 0.80

Sample `Cc1ncc(-c2cc(C(F)(F)F)cc3[nH]ncc23)n1C` , system: human MetAP2 enzyme (Homo sapiens, UniProt P50579). Its log10 IC50 is 2.00

Sample `CN1CCN(C(=O)c2cnc(N)c(-c3cc(C(F)(F)F)cc4[nH]ncc34)c2)CC1` , system: human MetAP2 enzyme (Homo sapiens, UniProt P50579). Its log10 IC50 is 1.00

Sample `Cc1[nH]cnc1-c1cc(C(F)(F)F)cc2[nH]ncc12` , system: human MetAP2 enzyme (Homo sapiens, UniProt P50579). Its log10 IC50 is 1.10

Sample `Cn1c(-c2cc(C(F)(F)F)cc3[nH]ncc23)nc2c1c(=O)[nH]c(=O)n2C` , system: human MetAP2 enzyme (Homo sapiens, UniProt P50579). Its log10 IC50 is 0.60

Sample `Cc1nn(CC(=O)NCCO)c(C)c1-c1cc(C(F)(F)F)cc2[nH]ncc12` , system: human MetAP2 enzyme (Homo sapiens, UniProt P50579). Its log10 IC50 is 1.10

Sample `O=C(NC1CC1)c1ccc(-c2cc(C(F)(F)F)cc3[nH]ncc23)cc1` , system: human MetAP2 enzyme (Homo sapiens, UniProt P50579). Its log10 IC50 is 0.90

Sample `O=S(=O)(CCO)c1ccccc1-c1cc(C(F)(F)F)cc2[nH]ncc12` , system: human MetAP2 enzyme (Homo sapiens, UniProt P50579). Its log10 IC50 is 1.40

Sample `CNC(=O)c1ccc(OC)c(-c2cc(C(F)(F)F)cc3[nH]ncc23)c1` , system: human MetAP2 enzyme (Homo sapiens, UniProt P50579). Its log10 IC50 is 0.70

Sample `Cc1nc(N2CCOCC2)ccc1-c1cc(C(F)(F)F)cc2[nH]ncc12` , system: human MetAP2 enzyme (Homo sapiens, UniProt P50579). Its log10 IC50 is 0.90

Sample `O=c1[nH]cc(-c2cc(C(F)(F)F)cc3[nH]ncc23)c(=O)[nH]1` , system: human MetAP2 enzyme (Homo sapiens, UniProt P50579). Its log10 IC50 is 0.80

Sample `OCc1cncc(-c2cc(C(F)(F)F)cc3[nH]ncc23)c1` , system: human MetAP2 enzyme (Homo sapiens, UniProt P50579). Its log10 IC50 is 0.80

Sample `OCc1ccccc1-c1cc(C(F)(F)F)cc2[nH]ncc12` , system: human MetAP2 enzyme (Homo sapiens, UniProt P50579). Its log10 IC50 is 0.50

Sample `NC(=O)c1cc(-c2cc(C(F)(F)F)cc3[nH]ncc23)cnc1N` , system: human MetAP2 enzyme (Homo sapiens, UniProt P50579). Its log10 IC50 is 0.90

Sample `O=C1CNc2ncc(-c3cc(C(F)(F)F)cc4[nH]ncc34)cc2N1` , system: human MetAP2 enzyme (Homo sapiens, UniProt P50579). Its log10 IC50 is 0.70

Sample `FC(F)(F)c1cc(-c2ccc3[nH]cnc3c2)c2cn[nH]c2c1` , system: human MetAP2 enzyme (Homo sapiens, UniProt P50579). Its log10 IC50 is 0.90

Sample `Cc1nc(N2CCN[C@H](C)C2)ccc1-c1cc(C(F)(F)F)cc2[nH]ncc12` , system: human MetAP2 enzyme (Homo sapiens, UniProt P50579). Its log10 IC50 is 0.60

Sample `O=C(NCCO)c1cncc(-c2cc(C(F)(F)F)cc3[nH]ncc23)c1` , system: human MetAP2 enzyme (Homo sapiens, UniProt P50579). Its log10 IC50 is 0.90

Sample `NC(=O)c1cc(-c2cc(C(F)(F)F)cc3[nH]ncc23)c[nH]c1=O` , system: human MetAP2 enzyme (Homo sapiens, UniProt P50579). Its log10 IC50 is 0.80

Sample `Cc1ccc(-c2cc(C(F)(F)F)cc3[nH]ncc23)c(C)n1` , system: human MetAP2 enzyme (Homo sapiens, UniProt P50579). Its log10 IC50 is 0.90

Sample `CCOCn1ccnc1-c1cc(C(F)(F)F)cc2[nH]ncc12` , system: human MetAP2 enzyme (Homo sapiens, UniProt P50579). Its log10 IC50 is 2.80

Sample `FC(F)(F)c1cc(-c2cnn3ccccc23)c2cn[nH]c2c1` , system: human MetAP2 enzyme (Homo sapiens, UniProt P50579). Its log10 IC50 is 0.80

Sample `CS(=O)(=O)c1ccccc1-c1cc(C(F)(F)F)cc2[nH]ncc12` , system: human MetAP2 enzyme (Homo sapiens, UniProt P50579). Its log10 IC50 is 1.90

Sample `O=c1[nH]cnc2[nH]nc(-c3cc(C(F)(F)F)cc4[nH]ncc34)c12` , system: human MetAP2 enzyme (Homo sapiens, UniProt P50579). Its log10 IC50 is 1.50

Sample `Cc1nn(CCC(N)=O)c(C)c1-c1cc(C(F)(F)F)cc2[nH]ncc12` , system: human MetAP2 enzyme (Homo sapiens, UniProt P50579). Its log10 IC50 is 0.90

Sample `CS(=O)(=O)Nc1ccc(-c2cc(C(F)(F)F)cc3[nH]ncc23)cc1` , system: human MetAP2 enzyme (Homo sapiens, UniProt P50579). Its log10 IC50 is 1.10

Sample `CN(C)C(=O)c1cc(-c2cc(C(F)(F)F)cc3[nH]ncc23)c(=O)n(C)c1` , system: human MetAP2 enzyme (Homo sapiens, UniProt P50579). Its log10 IC50 is 1.20

Sample `Cc1cccnc1-c1cc(C(F)(F)F)cc2[nH]ncc12` , system: human MetAP2 enzyme (Homo sapiens, UniProt P50579). Its log10 IC50 is 1.00
